Biological target: kinase enzymes (Homo sapiens, UniProt P42336)
Construct: purchased DiscoveRx Corporation, San Diego (contract service, KINOMEscan)
Sequence (P42336 whole entry): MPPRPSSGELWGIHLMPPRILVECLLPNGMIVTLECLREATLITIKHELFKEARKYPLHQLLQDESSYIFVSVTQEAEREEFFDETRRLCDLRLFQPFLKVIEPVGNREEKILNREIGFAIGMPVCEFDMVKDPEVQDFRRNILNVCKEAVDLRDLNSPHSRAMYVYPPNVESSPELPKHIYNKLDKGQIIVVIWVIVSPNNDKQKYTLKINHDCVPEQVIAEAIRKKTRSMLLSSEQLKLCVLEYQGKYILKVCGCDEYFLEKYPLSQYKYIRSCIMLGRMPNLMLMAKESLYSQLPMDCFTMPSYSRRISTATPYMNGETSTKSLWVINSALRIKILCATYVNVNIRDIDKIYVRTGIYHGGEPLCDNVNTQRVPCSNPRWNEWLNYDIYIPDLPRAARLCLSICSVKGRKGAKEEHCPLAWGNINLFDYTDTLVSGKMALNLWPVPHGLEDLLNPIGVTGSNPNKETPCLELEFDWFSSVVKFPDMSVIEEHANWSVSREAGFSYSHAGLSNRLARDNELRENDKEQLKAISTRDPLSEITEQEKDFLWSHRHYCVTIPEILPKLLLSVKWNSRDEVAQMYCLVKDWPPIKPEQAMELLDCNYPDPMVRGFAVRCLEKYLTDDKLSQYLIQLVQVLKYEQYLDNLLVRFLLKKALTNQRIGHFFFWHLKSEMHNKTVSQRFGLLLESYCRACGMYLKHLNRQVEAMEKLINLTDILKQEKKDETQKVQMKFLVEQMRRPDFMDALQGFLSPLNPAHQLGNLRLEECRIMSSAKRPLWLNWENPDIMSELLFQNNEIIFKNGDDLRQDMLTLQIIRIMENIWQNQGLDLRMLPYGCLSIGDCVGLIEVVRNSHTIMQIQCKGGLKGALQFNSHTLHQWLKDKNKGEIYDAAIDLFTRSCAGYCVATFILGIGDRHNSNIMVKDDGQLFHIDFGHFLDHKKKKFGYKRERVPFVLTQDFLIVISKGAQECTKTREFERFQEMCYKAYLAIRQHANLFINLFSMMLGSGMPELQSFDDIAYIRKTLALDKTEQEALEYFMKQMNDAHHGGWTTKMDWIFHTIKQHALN
Assay: Enzyme binding assay (KINOMEscan, DiscoveRx), further kinases of Table A
Conditions: PIK3Cα_h
Items are presented alongside their recorded pKd.
A value of pKd is the negative decimal logarithm of a concentration given in moles per litre.

INSERT INTO assay_data (compound, test_value) VALUES
  ('CC(Oc1cccc(F)c1)c1cc(C(=O)N(C)C)cc2ncc(N3CCOCC3)nc12 (single isomer, unassigned) [Compound 339a]', 5.34);

Query :: Form field: reported pKd of CC(Oc1cccc(F)c1)c1cc(C(=O)N(C)C)cc2ncc(N3CCOCC3)nc12 (stereo not drawn) [Compound 68]
Result :: 5.50

----------
Items are presented alongside their recorded Kd.
Molecular target: UniProt:P42336

INSERT INTO assay_data (compound, readout_name, test_value) VALUES
  ('CNCCOCCN(C)C(=O)c1cc(C(C)Nc2cc(F)c(F)c(F)c2)c2nc(N3CCOCC3)cnc2c1 (single isomer, unassigned) [Compound 315a]', 'Kd', '> 30.2 µM'),
  ('CC(Nc1cc(F)cc(F)c1)c1cc(C(=O)NCCO)cc2ncc(N3CCOCC3)nc12 (single isomer, unassigned)', 'Kd', '> 30.2 µM'),
  ('CC(C)NCCNC(=O)c1cc(C(C)Nc2cc(F)c(F)c(F)c2)c2nc(N3CCOCC3)cnc2c1 (single isomer, unassigned) [Compound 283b]', 'Kd', '> 30.2 µM'),
  ('CC(Nc1cc(F)cc(F)c1)c1cc(CN2CCn3nccc3C2)cc2ncc(N3CCOCC3)nc12 (single isomer, unassigned) [Compound 222]', 'Kd', '> 30.2 µM');

Would you kindly look at the next entry?
Query :: Form field: reported Kd of COc1cc(NC(C)c2cc(C(=O)N3CCOCC3)cc3ncc(N4CCOCC4)nc23)cc(OC)c1 (centres unmarked)
Result :: > 30.2 µM

----------
Target: UniProt O00329
Sequence (O00329 1-1044): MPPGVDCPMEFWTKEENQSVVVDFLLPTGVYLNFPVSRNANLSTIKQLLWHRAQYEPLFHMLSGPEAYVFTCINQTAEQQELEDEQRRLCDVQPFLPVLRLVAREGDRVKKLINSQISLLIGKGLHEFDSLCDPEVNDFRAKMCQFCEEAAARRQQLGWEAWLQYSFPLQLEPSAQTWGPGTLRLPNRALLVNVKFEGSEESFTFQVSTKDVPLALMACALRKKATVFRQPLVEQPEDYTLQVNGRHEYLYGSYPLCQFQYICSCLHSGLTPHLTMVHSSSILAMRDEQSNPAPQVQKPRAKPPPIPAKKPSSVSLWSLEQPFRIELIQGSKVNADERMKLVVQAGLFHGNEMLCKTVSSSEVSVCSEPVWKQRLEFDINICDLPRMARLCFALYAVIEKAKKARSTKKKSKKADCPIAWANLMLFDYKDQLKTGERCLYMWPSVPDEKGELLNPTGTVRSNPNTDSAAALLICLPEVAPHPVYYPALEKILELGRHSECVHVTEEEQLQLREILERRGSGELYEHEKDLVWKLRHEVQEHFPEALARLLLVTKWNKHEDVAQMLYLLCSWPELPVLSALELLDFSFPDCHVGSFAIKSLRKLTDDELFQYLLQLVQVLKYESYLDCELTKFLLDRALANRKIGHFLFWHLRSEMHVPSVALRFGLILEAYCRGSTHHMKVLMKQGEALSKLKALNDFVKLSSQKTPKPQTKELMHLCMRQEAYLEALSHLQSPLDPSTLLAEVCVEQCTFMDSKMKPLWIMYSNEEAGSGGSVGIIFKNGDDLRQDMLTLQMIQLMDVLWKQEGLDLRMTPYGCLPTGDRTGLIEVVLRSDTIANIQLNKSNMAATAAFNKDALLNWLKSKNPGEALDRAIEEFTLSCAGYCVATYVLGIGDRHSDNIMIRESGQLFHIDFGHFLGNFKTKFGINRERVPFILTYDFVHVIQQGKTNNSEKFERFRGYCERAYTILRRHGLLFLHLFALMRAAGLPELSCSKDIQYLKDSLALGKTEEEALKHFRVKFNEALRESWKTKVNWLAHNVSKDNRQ
Readout name: Kd

Previously resolved entries follow.
INSERT INTO assay_data (compound, assayed_system, readout_name, test_value) VALUES
  ('COC(=O)c1cc(C(C)Nc2ccc(C)c(F)c2)c2nc(N3CCOCC3)cnc2c1 (stereo not shown)', 'UniProt O00329', 'Kd', '> 30.2 µM'),
  ('O=C(NCCO)c1cc(N2CCC2c2ccc(F)cc2)c2nc(N3CCOCC3)cnc2c1 (single isomer, unassigned) [Compound 391a]', 'UniProt O00329', 'Kd', '> 30.2 µM'),
  ('CCN1CCN(C(=O)c2cc(C(C)Nc3cccc(F)c3)c3nc(N4CCOCC4)cnc3c2)CC1 (single isomer, unassigned) [Compound 113]', 'UniProt O00329', 'Kd', '> 30.2 µM');

Would you kindly look at the next entry?
Query :: Form field: reported Kd of "Cc1c(CNc2cc(C(=O)NCCO)cc3ncc(N4CCOCC4)nc23)cccc1C(F)(F)F"
Result :: > 3.31 µM

----------
Biological target: PI3Kβ (Homo sapiens, UniProt P42338)
Construct: purchased DiscoveRx Corporation, San Diego (contract service, KINOMEscan)
Sequence (P42338 whole entry): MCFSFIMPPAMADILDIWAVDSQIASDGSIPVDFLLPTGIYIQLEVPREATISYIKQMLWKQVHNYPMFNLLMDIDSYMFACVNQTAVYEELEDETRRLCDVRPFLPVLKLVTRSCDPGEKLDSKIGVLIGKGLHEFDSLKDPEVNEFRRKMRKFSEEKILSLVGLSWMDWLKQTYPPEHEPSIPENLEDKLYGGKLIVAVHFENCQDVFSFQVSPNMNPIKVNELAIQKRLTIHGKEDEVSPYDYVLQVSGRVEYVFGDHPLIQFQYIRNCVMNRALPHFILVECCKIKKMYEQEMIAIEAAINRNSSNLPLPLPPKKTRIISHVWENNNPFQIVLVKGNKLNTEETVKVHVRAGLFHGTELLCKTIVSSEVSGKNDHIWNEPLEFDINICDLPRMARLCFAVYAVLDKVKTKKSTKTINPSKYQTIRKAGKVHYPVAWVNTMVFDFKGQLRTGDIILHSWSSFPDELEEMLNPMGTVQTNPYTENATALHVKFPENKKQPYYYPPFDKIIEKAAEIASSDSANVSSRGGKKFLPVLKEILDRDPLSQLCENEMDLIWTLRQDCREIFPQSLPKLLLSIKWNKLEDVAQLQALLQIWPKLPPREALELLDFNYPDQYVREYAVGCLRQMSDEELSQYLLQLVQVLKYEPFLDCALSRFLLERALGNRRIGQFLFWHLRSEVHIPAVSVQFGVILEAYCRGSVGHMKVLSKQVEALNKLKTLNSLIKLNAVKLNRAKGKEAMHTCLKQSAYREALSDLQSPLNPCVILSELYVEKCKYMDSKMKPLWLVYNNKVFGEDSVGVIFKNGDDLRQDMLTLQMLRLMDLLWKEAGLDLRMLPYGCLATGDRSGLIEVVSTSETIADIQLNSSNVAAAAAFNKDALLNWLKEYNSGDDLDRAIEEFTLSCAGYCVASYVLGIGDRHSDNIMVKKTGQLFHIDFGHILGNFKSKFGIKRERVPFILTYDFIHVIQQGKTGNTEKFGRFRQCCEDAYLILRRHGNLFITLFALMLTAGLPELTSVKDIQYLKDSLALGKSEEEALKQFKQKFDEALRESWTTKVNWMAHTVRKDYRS
Assay: Enzyme binding assay (KINOMEscan, DiscoveRx)
Details: PIK3Cβ_h, read-out: Kd PIK3Cβ_h
Method: Enzyme Binding Assays (KINOMEscan®) Kinase enzyme binding affinities of compounds disclosed herein were determined using the KINOMEscan technology performed by DiscoveRx Corporation, San Diego, Calif., USA (www.kinomescan.com). Table A reports the obtained Kd values (nM), with the Kd being the inhibitor binding constant: […]
Items are presented alongside their recorded log10 of Kd.
Please keep in mind that the values are log10 of Kd expressed in nM.

Query :: Form field: reported log10 of Kd of CC(Nc1cccc(Cl)c1)c1cc(C(=O)N2CCOCC2)cc2ncc(N3CCOCC3)nc12 (stereo not shown)
Result :: 0.30

Query :: Also CC(Nc1cc(F)cc(F)c1)c1cc(CNCC(F)(F)F)cc2ncc(N3CCOCC3)nc12 (single isomer, unassigned) [Compound 163] , if possible.
Result :: 2.92

----------
Target: kinase enzymes (Homo sapiens)
pKd: −log10 of the molar value.
Given measured pKd, output condition met if it is greater than or equal to 5 and condition not met if not.

Consider the following illustrative entries.
INSERT INTO results (compound, assayed_system, label) VALUES
  ('CC(Nc1ccc(F)c(F)c1)c1cc(C(=O)NCCN(C)C)cc2ncc(N3CCOCC3)nc12 (single isomer, unassigned) [Compound 281a]', 'kinase enzymes (Homo sapiens)', 'condition met'),
  ('CN(C(=O)c1cc(NCc2cc(F)cc(F)c2)c2nc(N3CCOCC3)cnc2c1)[C@@H]1CCNC1', 'kinase enzymes (Homo sapiens)', 'condition not met'),
  ('CNCCNC(=O)c1cc(C(C)Nc2cc(F)ccc2F)c2nc(N3CCOCC3)cnc2c1 (centres unmarked)', 'kinase enzymes (Homo sapiens)', 'condition met');

Query :: Decide: is the reported value of pKd for CC(Nc1cc(F)cc(F)c1)c1cc(C(=O)N2CCNC(C(F)(F)F)C2)cc2ncc(N3CCOCC3)nc12 (single isomer, unassigned) [Compound 237d] equal to or greater than 5?
Result :: condition not met

Query :: Also "Cc1c(F)cccc1CN(C)c1cc(C(=O)N(C)C)cc2ncc(N3CCOCC3)nc12" , if possible.
Result :: condition not met

----------
Target: PI3Kβ (Homo sapiens, UniProt P42338)
Construct: purchased DiscoveRx Corporation, San Diego (contract service, KINOMEscan)
Assay: Enzyme binding assay (KINOMEscan, DiscoveRx)
Conditions: PIK3Cβ_h, read-out: Kd PIK3Cβ_h
Readout name: Kd (nM)
Hi! Could you send only the number? It should be in nM, unit omitted.

Previously resolved entries follow.
INSERT INTO results (compound, assayed_system, readout_name, test_value) VALUES
  ('CC(Nc1ccc(F)c(F)c1)c1cc(C(=O)NC[C@@H](C)O)cc2ncc(N3CCOCC3)nc12 (single isomer, unassigned) [Compound 346a]', 'PI3Kβ (Homo sapiens, UniProt P42338)', 'Kd', 3),
  ('CN[C@H]1CCN(C(=O)c2cc(C(C)Oc3cc(F)c(F)c(F)c3)c3nc(N4CCOCC4)cnc3c2)C1 (single isomer, unassigned) [Compound 405b]', 'PI3Kβ (Homo sapiens, UniProt P42338)', 'Kd', 1),
  ('O=C(NCCO)c1cc(N2CCC2c2ccc(F)cc2)c2nc(N3CCOCC3)cnc2c1 (single isomer, unassigned) [Compound 391a]', 'PI3Kβ (Homo sapiens, UniProt P42338)', 'Kd', 10700);

Query :: Form field: reported Kd of Cc1ccc(NC(C)c2cc(C(=O)NCCN(C)C)cc3ncc(N4CCOCC4)nc23)cc1F (single isomer, unassigned) [Compound 407a]
Result :: 7

Query :: Also CNCCNC(=O)c1cc(C(C)Oc2ccc(Cl)c(F)c2)c2nc(N3CCOCC3)cnc2c1 (single isomer, unassigned) [Compound 380b] , if possible.
Result :: 5

Query :: Also CC(Nc1cc(F)cc(F)c1)c1cc(CN2CC3(C2)CS(=O)(=O)C3)cc2ncc(N3CCOCC3)nc12 (single isomer, unassigned) [Compound 160] , if possible.
Result :: 2

Query :: Also CC(Oc1cc(F)cc(F)c1)c1cc(C(=O)NCCO)cc2ncc(N3CCOCC3)nc12 (single isomer, unassigned) [Compound 200] , if possible.
Result :: 2400

Query :: Also Cc1c(F)cccc1CN(C)c1cc(C(=O)N2CCNC(C(F)(F)F)C2)cc2ncc(N3CCOCC3)nc12 (single isomer, unassigned) [Compound 367a] , if possible.
Result :: 63

These measurements were taken from patent US10526316B2.
